molecular target: T1, IL-13RA2 huFc (human); test: Biacore, induced supernatant of the scFv clone; parent 31C2
T1 construct: Expressed in 293F cells, purified on protein A; also called human IL13RA2; recombinant IL-13RA2
T1 sequence (chain, as listed by the source limits assumed): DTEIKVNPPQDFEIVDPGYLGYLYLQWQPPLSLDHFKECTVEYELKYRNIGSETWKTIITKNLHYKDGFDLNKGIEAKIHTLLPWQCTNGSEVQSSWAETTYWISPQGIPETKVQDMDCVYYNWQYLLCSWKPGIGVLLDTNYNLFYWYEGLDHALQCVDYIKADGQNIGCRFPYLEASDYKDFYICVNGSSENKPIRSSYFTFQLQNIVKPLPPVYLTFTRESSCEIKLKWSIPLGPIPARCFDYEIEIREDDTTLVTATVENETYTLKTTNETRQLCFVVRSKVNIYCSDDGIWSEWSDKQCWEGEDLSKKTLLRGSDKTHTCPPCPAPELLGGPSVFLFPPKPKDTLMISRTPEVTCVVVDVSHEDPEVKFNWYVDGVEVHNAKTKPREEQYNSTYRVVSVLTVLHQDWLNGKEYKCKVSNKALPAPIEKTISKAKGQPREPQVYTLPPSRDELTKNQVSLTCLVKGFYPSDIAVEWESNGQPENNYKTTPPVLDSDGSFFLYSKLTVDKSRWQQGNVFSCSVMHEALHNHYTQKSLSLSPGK
assay metric: fold lower dissociation constant Kd than the parent clone

Request: For the binder 1D11 (scFv) (scFv, also called clone 1D11) scFv: EVQLLESGGGLVQPGGSLRLSCAASGFTFGTIPMSWVRQAPGKGLEWVSSISGSAGSTYYADSVKGRFTISRDNSKNTLYLQMNSLRAEDTAVYYCAKVRYGWGAGAFDYWGQGTLVTVSSGGGGSGGGGSGGGGSDIQMTQSPSTLSASVGDRVTITCRASQSISSWLAWYQQKPGKAPKLLIYDASSLESGVPSRFSGSGSGTEFTLTISSLQPDDFATYYCQQYDTYPPITFGQGTKVEIK , give its measured fold lower dissociation constant Kd than the parent clone value.
Result: > 10 times
